biological target: PKD3 (Homo sapiens, UniProt O94806); construct: recombinant human PKD3; assay: in vitro radiometric kinase assay, 10-point curve
Sequence (O94806 whole entry): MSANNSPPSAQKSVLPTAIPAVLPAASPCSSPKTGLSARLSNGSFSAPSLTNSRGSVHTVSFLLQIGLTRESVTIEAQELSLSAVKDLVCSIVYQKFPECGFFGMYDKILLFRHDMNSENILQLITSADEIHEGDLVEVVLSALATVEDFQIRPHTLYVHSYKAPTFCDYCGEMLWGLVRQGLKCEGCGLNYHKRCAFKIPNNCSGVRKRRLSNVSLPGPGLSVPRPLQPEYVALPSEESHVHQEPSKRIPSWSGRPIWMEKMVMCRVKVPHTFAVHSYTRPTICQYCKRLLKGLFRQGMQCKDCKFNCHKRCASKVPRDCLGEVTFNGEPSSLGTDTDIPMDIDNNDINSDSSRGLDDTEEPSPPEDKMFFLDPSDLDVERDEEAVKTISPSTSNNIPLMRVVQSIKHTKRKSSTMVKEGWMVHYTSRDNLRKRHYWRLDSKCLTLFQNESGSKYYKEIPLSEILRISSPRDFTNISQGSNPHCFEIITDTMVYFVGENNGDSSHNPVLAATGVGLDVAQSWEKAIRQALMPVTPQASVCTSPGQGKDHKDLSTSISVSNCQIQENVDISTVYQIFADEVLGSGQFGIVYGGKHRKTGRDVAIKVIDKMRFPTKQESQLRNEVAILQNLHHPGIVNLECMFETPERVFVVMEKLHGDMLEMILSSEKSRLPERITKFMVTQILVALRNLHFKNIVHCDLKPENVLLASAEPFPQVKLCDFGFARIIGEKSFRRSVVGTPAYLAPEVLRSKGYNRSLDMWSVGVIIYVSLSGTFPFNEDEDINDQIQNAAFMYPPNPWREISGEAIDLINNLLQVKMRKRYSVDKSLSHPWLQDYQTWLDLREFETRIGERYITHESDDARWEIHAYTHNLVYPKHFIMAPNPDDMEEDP
measured_property: IC50 (nM)
# number only, unit nM dropped from output

**Q:** Using known records, supply IC50 for `Fc1ccc(Cl)cc1-c1nc(Nc2ccncc2)c2nccnc2n1`
**A:** 105

* * *

biological target: PKD2 (Homo sapiens); construct: recombinant human PKD2; assay: in vitro radiometric kinase assay, 10-point curve
Sequence (Q9BZL6 whole entry): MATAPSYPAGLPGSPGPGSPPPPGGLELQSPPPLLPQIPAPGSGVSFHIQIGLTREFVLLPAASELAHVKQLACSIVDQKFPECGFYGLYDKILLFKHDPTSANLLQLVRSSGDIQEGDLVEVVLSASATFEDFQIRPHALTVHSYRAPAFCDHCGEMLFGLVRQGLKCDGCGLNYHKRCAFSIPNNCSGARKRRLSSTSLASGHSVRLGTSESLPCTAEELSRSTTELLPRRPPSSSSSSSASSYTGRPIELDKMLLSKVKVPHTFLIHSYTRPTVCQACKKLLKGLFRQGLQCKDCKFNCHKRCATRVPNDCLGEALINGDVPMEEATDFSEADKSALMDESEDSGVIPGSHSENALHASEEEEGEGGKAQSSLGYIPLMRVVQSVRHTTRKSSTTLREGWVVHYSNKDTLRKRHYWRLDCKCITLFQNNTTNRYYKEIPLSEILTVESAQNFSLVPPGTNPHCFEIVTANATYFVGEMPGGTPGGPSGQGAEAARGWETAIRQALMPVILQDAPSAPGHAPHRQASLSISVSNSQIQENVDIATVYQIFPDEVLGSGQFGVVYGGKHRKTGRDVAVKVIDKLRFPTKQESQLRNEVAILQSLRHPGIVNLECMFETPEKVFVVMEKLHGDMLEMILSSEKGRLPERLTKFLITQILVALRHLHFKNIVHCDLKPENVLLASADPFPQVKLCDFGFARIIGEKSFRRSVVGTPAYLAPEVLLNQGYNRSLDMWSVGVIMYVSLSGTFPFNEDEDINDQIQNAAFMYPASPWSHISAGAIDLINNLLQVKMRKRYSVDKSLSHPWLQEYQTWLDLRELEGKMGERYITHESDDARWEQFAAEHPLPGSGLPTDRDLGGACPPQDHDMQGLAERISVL
measured_property: IC50
Form field: result (number plus unit)

**Q:** Using known records, supply IC50 for Fc1ccc(Cl)cc1-c1nc(Nc2ccncc2)c2nccnc2n1 [SD-208]
**A:** 93.5 nM

* * *

target: protein kinase D1 (PKD1) (Homo sapiens, UniProt Q15139); construct: GST-tagged recombinant human PKD1; assay: in vitro radiometric kinase assay, 10-point curve; Lineweaver-Burk
Sequence (Q15139 whole entry): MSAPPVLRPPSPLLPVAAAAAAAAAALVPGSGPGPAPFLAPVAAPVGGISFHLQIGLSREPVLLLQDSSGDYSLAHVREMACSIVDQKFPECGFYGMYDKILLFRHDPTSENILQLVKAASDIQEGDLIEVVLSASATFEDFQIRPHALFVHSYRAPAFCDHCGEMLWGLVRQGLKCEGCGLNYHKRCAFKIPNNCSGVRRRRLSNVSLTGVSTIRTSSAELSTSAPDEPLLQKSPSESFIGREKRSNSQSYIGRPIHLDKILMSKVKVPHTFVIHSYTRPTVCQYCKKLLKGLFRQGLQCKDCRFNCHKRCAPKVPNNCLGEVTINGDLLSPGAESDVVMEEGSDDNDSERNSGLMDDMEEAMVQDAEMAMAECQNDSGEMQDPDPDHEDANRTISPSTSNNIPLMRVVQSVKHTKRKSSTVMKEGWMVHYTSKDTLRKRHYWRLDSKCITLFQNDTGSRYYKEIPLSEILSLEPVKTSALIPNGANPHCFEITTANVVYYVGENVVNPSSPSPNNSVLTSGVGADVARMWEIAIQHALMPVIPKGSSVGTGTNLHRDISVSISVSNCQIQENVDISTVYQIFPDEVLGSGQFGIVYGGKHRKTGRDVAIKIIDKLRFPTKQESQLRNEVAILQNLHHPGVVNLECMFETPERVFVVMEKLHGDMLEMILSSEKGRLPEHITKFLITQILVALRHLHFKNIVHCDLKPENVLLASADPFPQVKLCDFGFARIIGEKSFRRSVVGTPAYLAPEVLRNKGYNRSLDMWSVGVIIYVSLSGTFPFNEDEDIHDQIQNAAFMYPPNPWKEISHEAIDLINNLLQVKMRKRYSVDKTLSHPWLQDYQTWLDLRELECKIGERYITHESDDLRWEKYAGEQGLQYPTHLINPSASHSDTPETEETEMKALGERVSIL
measured_property: IC50 (nM)
# number only, unit nM dropped from output

**Q:** Fill in: IC50 on protein kinase D1 (PKD1) (Homo sapiens, UniProt Q15139), entry `Fc1ccc(Cl)cc1-c1nc(Nc2ccncc2)c2nccnc2n1`
**A:** 107
